Source listed as patent US20250108048A1.

Parameter EC50: see the listing below.
# testTarget: hSTING-R232 (Homo sapiens, UniProt Q86WV6, H232R)
# Construct: host or cells: THP1-Dual KI-hSTING-R232 (from THP1-Dual KO-STING)
# Sequence (Q86WV6 whole entry H232R): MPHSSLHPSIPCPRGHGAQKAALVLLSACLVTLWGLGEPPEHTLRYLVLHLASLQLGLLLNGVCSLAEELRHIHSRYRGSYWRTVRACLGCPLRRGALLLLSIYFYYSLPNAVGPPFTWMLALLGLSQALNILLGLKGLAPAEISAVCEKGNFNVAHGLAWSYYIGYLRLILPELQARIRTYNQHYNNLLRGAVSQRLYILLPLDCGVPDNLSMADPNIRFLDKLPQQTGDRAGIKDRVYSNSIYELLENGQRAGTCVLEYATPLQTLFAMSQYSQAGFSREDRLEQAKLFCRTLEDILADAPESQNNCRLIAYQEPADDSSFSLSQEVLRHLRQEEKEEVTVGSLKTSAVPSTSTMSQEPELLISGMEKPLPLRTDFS
# experimentDescription: THP1-Dual KI-hSTING-R232 reporter assay (IRF pathway, secreted Lucia luciferase)
# Format: cell-based
# condition: THP1-Dual KI-hSTING-R232 cells, 24 hours; read-out: Reporter assay EC50 (nM) THP-1-R232

Below, 2 compounds whose answers are already recorded.
1) COc1cc(C(N)=O)cc2nc(NC(=O)c3oc(C)nc3C)n(C/C=C/Cn3c(NC(=O)c4oc(C)nc4C)nc4cc(C(N)=O)cc(OCCCN5CCC(c6nnc7n6CCNC7)CC5)c43)c12
> 150 nM
2) CCn1nc(C)cc1C(=O)Nc1nc2cc(C(N)=O)cc(OC)c2n1C/C=C/Cn1c(NC(=O)c2cc(C)nn2CC)nc2cc(C(N)=O)cc(OCCCN3CC4(C3)CN(C(=O)CCCCCON)CCO4)c21
≤ 50 nM

Could you share what EC50 was measured for `CCn1nc(C)cc1C(=O)Nc1nc2cc(C(N)=O)cc(OC)c2n1C/C=C/Cn1c(NC(=O)Cc2cc(C)nn2C)nc2cc(C(N)=O)cc(OCCCN3CC4(CNCCO4)C3)c21` , tested on hSTING-R232 (Homo sapiens, UniProt Q86WV6, H232R)?
> 150 nM

Could you share what EC50 was measured for `CCn1nc(C)cc1C(=O)Nc1nc2cc(C(N)=O)cnc2n1CCCCn1c(NC(=O)c2cc(C)nn2CC)nc2cc(C(N)=O)cc(OCCCN3CCC(c4nnc5n4CCNC5)CC3)c21` , tested on hSTING-R232 (Homo sapiens, UniProt Q86WV6, H232R)?
> 150 nM

Could you share what EC50 was measured for `CCc1cc(C(=O)Nc2nc3cc(C(N)=O)cc(OCCCN4CC5(CNCCO5)C4)c3n2C/C=C/Cn2c(NC(=O)c3cc(C)nn3CC)nc3cc(C(N)=O)cc(OC)c32)n(C)n1` , tested on hSTING-R232 (Homo sapiens, UniProt Q86WV6, H232R)?
> 150 nM
